Target: UniProt:P28335
Sequence (P28335 33-458): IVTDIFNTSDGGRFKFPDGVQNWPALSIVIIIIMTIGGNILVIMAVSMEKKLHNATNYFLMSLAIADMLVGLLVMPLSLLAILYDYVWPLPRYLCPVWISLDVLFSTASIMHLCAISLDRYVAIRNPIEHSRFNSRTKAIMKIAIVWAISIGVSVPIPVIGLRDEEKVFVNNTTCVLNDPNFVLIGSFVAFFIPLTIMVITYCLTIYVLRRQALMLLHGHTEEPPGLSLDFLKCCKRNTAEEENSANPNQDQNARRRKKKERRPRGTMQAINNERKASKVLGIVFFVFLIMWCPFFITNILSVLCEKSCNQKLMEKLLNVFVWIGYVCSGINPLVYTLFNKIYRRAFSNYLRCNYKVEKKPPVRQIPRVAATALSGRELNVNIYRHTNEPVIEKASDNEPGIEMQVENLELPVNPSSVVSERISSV
Experiment: Functional assay in HEK-293 cells (IP1)
experimentalReadout: IC50 (µM)

| molecule | experimentalReadout | testValue |
| --- | --- | --- |
| CCN(CC)C(=O)[C@@H]1C=C2c3cccc4[nH]c(Br)c(c34)C[C@H]2N(C)C1 [E559] | IC50 | 1.1 |

====

target: ADRa1A (α1A adrenergic receptor) (Homo sapiens); test: BRET-based G protein dissociation assay; type: cell-based; settings: agonist mode; read-out: EC50
Sequence (P35348 whole entry): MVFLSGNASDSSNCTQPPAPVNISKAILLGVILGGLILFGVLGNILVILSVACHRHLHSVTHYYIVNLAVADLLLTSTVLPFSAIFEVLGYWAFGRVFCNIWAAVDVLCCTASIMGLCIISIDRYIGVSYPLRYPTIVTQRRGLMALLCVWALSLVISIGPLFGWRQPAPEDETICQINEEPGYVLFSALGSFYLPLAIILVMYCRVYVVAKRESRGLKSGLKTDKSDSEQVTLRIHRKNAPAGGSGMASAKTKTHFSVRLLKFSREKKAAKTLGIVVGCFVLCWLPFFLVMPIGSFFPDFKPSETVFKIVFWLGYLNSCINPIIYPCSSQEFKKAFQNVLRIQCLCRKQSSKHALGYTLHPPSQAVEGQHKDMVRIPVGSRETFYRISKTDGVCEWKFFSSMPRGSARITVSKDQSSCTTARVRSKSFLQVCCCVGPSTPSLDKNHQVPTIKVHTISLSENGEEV

| molecule | EC50 (nM) |
| --- | --- |
| CCN(CC)C(=O)[C@@H]1C=C2c3cccc4[nH]cc(c34)C[C@H]2N(C)C1 [LSD, lysergic acid diethylamide, reference compound] | 38.5 |

====

Target: 5-HT2A receptor (5-HT2AR) (Homo sapiens, UniProt P28223)
Construct: expressed in transfected cells; host or cells: HEK-293
Experiment: Functional assay in HEK-293 cells (IP1)
Assay type: cell-based
Conditions: read-out: Funcational Assay (antagonist) IC50; IP1; ligand 5-HT
Protocol: Neuro-receptor binding and functional effects of the “E559 polymorph” was examined by analyzing binding affinity [Ki (nM)], functional agonist activity [EC50 (nM)], and functional antagonist activity [IC50 (nM)] against a panel of key receptors in neurophysiological disorders. […] The measurement of binding affinity of the “E559 polymorph” is represented in TABLE XIII by Ki (nM) which was calculated as percent inhibition of the binding of a radioactively labeled reference ligand at each receptor. […]

| smilesNotation | IC50 |
| --- | --- |
| CCN(CC)C(=O)[C@@H]1C=C2c3cccc4[nH]c(Br)c(c34)C[C@H]2N(C)C1 | 24.9 nM |

====

Target: Alpha 2B adrenergic receptor (Homo sapiens)
Sequence (P18089 1-450): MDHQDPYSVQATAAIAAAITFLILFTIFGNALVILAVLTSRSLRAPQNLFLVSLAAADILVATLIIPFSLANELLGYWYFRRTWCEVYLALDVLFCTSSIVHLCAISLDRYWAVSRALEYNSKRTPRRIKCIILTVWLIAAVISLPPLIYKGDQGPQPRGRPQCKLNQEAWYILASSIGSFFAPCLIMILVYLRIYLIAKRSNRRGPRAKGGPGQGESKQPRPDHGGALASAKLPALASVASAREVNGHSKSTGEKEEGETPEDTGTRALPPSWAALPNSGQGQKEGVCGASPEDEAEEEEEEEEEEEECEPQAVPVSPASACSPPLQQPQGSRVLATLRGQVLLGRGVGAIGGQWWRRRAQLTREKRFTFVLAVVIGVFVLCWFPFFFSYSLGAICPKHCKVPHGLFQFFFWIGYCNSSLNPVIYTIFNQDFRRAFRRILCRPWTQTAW
pKi: −log10 of the molar value.
experimentalReadout: pKi

| smilesNotation | testValue |
| --- | --- |
| CCN(CC)C(=O)[C@@H]1C=C2c3cccc4[nH]c(Br)c(c34)C[C@H]2N(C)C1 | 7.57 |

====

target: H2 histaminergic receptor (Homo sapiens); experiment: BRET-based G protein dissociation assay; type: cell-based
Sequence (P25021 whole entry): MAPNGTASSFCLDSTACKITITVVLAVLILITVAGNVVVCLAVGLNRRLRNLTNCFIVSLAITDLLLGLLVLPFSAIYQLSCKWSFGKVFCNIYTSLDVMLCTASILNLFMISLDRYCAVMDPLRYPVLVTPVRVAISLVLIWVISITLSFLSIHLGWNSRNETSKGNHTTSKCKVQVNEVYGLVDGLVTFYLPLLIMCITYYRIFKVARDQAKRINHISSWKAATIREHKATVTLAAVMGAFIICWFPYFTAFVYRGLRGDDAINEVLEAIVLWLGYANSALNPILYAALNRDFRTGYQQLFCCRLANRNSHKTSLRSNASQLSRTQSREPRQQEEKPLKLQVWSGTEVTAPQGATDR

| smilesNotation | measurementTarget | resultUnit | EC50 |
| --- | --- | --- | --- |
| CCN(CC)C(=O)[C@@H]1C=C2c3cccc4[nH]c(Br)c(c34)C[C@H]2N(C)C1 | H2 histaminergic receptor (Homo sapiens) | nM | 296 |

====

molecular target: Alpha 1A adrenergic receptor (Homo sapiens); test: Functional assay in HEK-293 cells (Ca2+ flux)
Sequence (P35348 whole entry): as the sequence (P35348 whole entry) above

| smilesNotation | EC50 |
| --- | --- |
| CCN(CC)C(=O)[C@@H]1C=C2c3cccc4[nH]c(Br)c(c34)C[C@H]2N(C)C1 | 51 nM |

====

Target: Beta 1 adrenergic receptor (Homo sapiens, UniProt P08588)
Sequence (P08588 whole entry): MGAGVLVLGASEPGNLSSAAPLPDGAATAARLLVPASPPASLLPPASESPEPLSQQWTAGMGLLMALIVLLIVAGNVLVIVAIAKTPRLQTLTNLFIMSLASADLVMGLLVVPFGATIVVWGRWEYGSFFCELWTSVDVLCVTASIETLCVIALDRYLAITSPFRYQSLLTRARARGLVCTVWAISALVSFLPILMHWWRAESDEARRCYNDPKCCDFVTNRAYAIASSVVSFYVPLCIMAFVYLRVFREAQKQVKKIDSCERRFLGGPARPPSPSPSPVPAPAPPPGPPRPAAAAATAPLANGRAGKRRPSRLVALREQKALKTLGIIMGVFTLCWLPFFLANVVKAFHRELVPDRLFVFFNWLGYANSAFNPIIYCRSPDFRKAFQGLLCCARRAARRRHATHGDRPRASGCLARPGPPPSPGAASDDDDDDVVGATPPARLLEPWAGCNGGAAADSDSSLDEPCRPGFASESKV
Assay: Functional assay in HEK-293 cells (cAMP)
Description: Neuro-receptor binding and functional effects of the “E559 polymorph” was examined by analyzing binding affinity [Ki (nM)], functional agonist activity [EC50 (nM)], and functional antagonist activity [IC50 (nM)] against a panel of key receptors in neurophysiological disorders. […] The measurement of binding affinity of the “E559 polymorph” is represented in TABLE XIII by Ki (nM) which was calculated as percent inhibition of the binding of a radioactively labeled reference ligand at each receptor. […]
experimentalReadout: EC50

| smilesNotation | experimentalReadout | testValue |
| --- | --- | --- |
| CCN(CC)C(=O)[C@@H]1C=C2c3cccc4[nH]c(Br)c(c34)C[C@H]2N(C)C1 | EC50 | > 10 µM |

====

molecular target: Serotonin 2B receptor (5-HT2BR) (Homo sapiens); construct: expressed in transfected cells; host or cells: HEK-293; test: Functional assay in HEK-293 cells (IP1); assay type: cell-based; details: read-out: Funcational Assay (antagonist) IC50; IP1; ligand 5-HT
Sequence (P41595 whole entry): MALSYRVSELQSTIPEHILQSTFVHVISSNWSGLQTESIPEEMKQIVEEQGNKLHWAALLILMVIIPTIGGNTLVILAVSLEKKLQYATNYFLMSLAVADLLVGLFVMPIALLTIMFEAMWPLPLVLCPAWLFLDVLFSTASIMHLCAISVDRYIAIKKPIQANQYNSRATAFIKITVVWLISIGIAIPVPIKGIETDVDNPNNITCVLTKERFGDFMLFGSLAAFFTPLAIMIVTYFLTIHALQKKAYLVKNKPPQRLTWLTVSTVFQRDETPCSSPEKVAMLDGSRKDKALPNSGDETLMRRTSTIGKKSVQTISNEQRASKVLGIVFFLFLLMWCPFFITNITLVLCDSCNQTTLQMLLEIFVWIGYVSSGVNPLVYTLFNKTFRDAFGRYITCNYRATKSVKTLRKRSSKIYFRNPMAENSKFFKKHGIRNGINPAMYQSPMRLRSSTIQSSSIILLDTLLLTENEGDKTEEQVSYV
pIC50: −log10 of the molar value.
experimentalReadout: pIC50

| compound | experimentalReadout | testValue |
| --- | --- | --- |
| CCN(CC)C(=O)[C@@H]1C=C2c3cccc4[nH]c(Br)c(c34)C[C@H]2N(C)C1 [E559] | pIC50 | 7.01 |

====

target: CHRM5 (M5 muscarinic receptor) (Homo sapiens); assay: BRET-based G protein dissociation assay; assay type: cell-based
Sequence (P08912 whole entry): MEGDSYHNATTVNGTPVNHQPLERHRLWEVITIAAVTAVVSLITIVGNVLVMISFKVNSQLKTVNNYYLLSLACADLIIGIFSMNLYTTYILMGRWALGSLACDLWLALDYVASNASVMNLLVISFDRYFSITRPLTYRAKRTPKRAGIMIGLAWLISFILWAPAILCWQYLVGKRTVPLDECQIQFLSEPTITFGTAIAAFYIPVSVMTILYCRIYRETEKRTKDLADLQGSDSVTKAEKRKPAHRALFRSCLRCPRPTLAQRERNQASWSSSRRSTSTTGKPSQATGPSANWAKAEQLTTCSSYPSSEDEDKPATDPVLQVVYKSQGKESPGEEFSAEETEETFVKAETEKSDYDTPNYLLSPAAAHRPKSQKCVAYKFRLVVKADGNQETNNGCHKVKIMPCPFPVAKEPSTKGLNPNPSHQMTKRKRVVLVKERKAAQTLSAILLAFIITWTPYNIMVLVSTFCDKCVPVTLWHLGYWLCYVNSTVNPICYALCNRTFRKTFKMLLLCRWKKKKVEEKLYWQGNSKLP
pEC50: −log10 of the molar value.

| smilesNotation | pEC50 |
| --- | --- |
| CCN(CC)C(=O)[C@@H]1C=C2c3cccc4[nH]c(Br)c(c34)C[C@H]2N(C)C1 | 5.24 |

====

molecular target: D2S dopamine receptor (Homo sapiens); assay: Functional assay in HEK-293 cells (cAMP)

| smilesNotation | IC50 |
| --- | --- |
| CCN(CC)C(=O)[C@@H]1C=C2c3cccc4[nH]c(Br)c(c34)C[C@H]2N(C)C1 | > 10 µM |

====

target: D2S dopamine receptor (Homo sapiens, UniProt P14416); experiment: Functional assay in HEK-293 cells (cAMP)
Sequence (P14416 1-414 isoform P14416-2): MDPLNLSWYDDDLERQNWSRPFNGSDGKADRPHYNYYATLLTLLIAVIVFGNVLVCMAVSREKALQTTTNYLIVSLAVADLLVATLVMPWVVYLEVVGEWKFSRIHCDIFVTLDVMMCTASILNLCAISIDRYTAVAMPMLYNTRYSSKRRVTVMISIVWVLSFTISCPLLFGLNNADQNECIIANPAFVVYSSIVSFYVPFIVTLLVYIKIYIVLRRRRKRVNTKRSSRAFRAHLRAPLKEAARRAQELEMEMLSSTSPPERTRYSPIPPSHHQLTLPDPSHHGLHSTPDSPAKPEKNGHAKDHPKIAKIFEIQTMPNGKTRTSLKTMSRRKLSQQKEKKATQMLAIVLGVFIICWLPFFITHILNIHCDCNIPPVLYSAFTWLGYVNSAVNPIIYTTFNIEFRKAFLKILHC
pEC50: −log10 of the molar value.

| smilesNotation | pEC50 |
| --- | --- |
| CCN(CC)C(=O)[C@@H]1C=C2c3cccc4[nH]c(Br)c(c34)C[C@H]2N(C)C1 | < 5.00 |

====

The entries below are paired with their reported EC50.
target: 5-HT2A receptor (5-HT2AR) (Homo sapiens); construct: expressed in transfected cells; host or cells: HEK-293; test: Functional assay in HEK-293 cells (IP1); format: cell-based
experimentalReadout: EC50 (nM)

| smilesNotation | resultUnit | testValue |
| --- | --- | --- |
| CCN(CC)C(=O)[C@H]1C=C2c3cccc4[nH]c(Br)c(c34)C[C@H]2N(C)C1 | nM | 200 |
| CCN(CC)C(=O)[C@@H]1C=C2c3cccc4[nH]c(Br)c(c34)C[C@H]2N(C)C1 | nM | 11 |

====

molecular target: Beta 2 adrenergic receptor (Homo sapiens, UniProt P07550); experiment: Functional assay in HEK-293 cells (cAMP)
Sequence (P07550 whole entry): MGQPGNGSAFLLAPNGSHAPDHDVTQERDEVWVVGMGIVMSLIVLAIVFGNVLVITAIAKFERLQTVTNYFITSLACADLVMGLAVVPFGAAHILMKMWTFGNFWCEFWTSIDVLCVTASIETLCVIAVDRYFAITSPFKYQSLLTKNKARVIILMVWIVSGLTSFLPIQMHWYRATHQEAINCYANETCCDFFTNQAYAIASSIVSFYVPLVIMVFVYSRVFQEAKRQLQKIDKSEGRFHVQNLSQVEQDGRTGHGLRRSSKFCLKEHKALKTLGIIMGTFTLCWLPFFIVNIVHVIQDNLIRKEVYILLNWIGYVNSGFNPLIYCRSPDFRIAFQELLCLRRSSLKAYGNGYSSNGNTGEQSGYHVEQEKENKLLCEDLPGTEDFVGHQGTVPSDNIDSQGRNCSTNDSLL

| molecule | EC50 |
| --- | --- |
| CCN(CC)C(=O)[C@@H]1C=C2c3cccc4[nH]c(Br)c(c34)C[C@H]2N(C)C1 [E559] | > 10 µM |

====

Let's look at some compounds and their measured EC50.
Target: Serotonin 1B receptor (5-HT1BR) (Homo sapiens, UniProt P28222)
Construct: expressed in transfected cells; host or cells: HEK-293
Sequence (P28222 whole entry): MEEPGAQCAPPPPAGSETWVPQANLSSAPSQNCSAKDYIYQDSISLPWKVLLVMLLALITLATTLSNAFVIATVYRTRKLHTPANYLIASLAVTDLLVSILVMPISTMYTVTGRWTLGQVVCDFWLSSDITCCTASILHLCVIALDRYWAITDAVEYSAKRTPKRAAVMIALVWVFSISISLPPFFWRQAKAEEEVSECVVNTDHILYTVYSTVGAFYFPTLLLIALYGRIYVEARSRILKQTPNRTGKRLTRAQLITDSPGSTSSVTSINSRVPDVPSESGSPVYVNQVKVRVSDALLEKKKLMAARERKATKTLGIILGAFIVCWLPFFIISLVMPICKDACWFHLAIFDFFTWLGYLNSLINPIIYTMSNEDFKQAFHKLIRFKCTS
Assay: Functional assay in HEK-293 cells (cAMP)
Type: cell-based
Settings: Functional Assay (agonist) EC50 (nM), cAMP; ligand 5-HT
Method: Neuro-receptor binding and functional effects of the “E559 polymorph” was examined by analyzing binding affinity [Ki (nM)], functional agonist activity [EC50 (nM)], and functional antagonist activity [IC50 (nM)] against a panel of key receptors in neurophysiological disorders. […] The measurement of binding affinity of the “E559 polymorph” is represented in TABLE XIII by Ki (nM) which was calculated as percent inhibition of the binding of a radioactively labeled reference ligand at each receptor. […]

| compound | resultUnit | valueOperator | EC50 |
| --- | --- | --- | --- |
| CCN(CC)C(=O)[C@@H]1C=C2c3cccc4[nH]c(Br)c(c34)C[C@H]2N(C)C1 [E559] | nM | = | 6.96 |
| CCN(CC)C(=O)[C@H]1C=C2c3cccc4[nH]c(Br)c(c34)C[C@H]2N(C)C1 [E558] | nM | > | 10000 |
